viability at 72 h, 6.25e-07 M values by entry
- assayRemarks: Viability assay against CHO cells (MTT colorimetric assay)
- Assay type: cell-based, Chinese hamster
- protocolConditions: Chinese hamster, CHO cells, 6.25e-007 M; 72 h; replicates n = 1, 2, 3; read-out: % viable cells
Starred links: 1 amine or outer side, 2 acyl side, 3 side chain; linkers in the order of their positions; H or OH if unused. Positions of bridges follow the written chain, without caps; N, C: chain ends. Non-standard residues stand in square brackets, D forms with d. Residues, ends and D or L forms follow the SMILES beside them. Trp(2-yl) = O=C([C@H](Cc1c([*:3])[nH]c2ccccc12)N[*:1])[*:2]; Pro(4R-SH) = O=C([C@@H]1C[C@@H](S[*:3])CN1[*:1])[*:2]; Ile(4R-OH,5-OH) = C[C@H]([C@H](N)C(=O)O)[C@@H](O)CO; X5 = COC(=O)N[C@@H]1C[C@@H](C(=O)[*:2])N([*:1])C1; X1 = N#C[C@@H]1C[C@@H](C(=O)[*:2])N([*:1])C1
Respond with the figure and its unit, in that order.

Given the entry CC[C@H](C)[C@@H]1NC(=O)CNC(=O)[C@@H]2Cc3c([nH]c4ccccc34)SC[C@H](NC(=O)CNC1=O)C(=O)N[C@@H](CC(N)=O)C(=O)N1C[C@H](C#N)C[C@H]1C(=O)N[C@@H]([C@@H](C)[C@@H](O)CO)C(=O)N2 [Compound 4, CN-Pro-amanitin] (cyclo(CN[X1][Ile(4R-OH,5-OH)][Trp(2-yl)]GIG); thioether 1-5) , report its measured viability at 72 h, 6.25e-07 M. 102%

---
Reported viability at 72 h, 6.25e-07 M for CC[C@H](C)[C@@H]1NC(=O)CNC(=O)[C@@H]2Cc3c([nH]c4ccccc34)SC[C@H](NC(=O)CNC1=O)C(=O)N[C@@H](CC(N)=O)C(=O)N1C[C@H](NC(=O)OC)C[C@H]1C(=O)N[C@@H]([C@@H](C)[C@@H](O)CO)C(=O)N2 [Compound 32, MeOCONH-Pro-amanitin] (cyclo(CN[X5][Ile(4R-OH,5-OH)][Trp(2-yl)]GIG); thioether 1-5) : what is it? 91%

Next entry: CC[C@H](C)[C@@H]1NC(=O)CNC(=O)[C@@H]2Cc3c([nH]c4ccccc34)SC[C@H](NC(=O)CNC1=O)C(=O)N[C@@H](CC(N)=O)C(=O)N1C[C@H](S)C[C@H]1C(=O)N[C@@H]([C@@H](C)[C@@H](O)CO)C(=O)N2 [Compound 5, SH-Pro-amanitin] (cyclo(CN[Pro(4R-SH)][Ile(4R-OH,5-OH)][Trp(2-yl)]GIG); thioether 1-5) 98%
